- Test system: MCF7
- Assay: Cytotoxicity against human MCF7 cells after 48 hrs by MTT method
- Format: functional, cell-based
- Experimental Context: MCF7, 48 h
pIC50: −log10 of the molar value.
Reported pIC50 values for the following molecules.
Metric: pIC50

1) C=C1C(=O)[C@@]23C(=CC[C@@H]1[C@H]2O)[C@@]12CO[C@]3(O)[C@@H](O)[C@@H]1C(C)(C)CC[C@@H]2OC(C)=O [ISOADENOLIN J]
< 5.00
2) C=C1[C@@H](O)[C@]23[C@H](O)[C@H]1C[C@H](O)[C@H]2[C@@]12CCCC(C)(C)[C@H]1[C@H](O)[C@@]3(O)O[C@@H]2OC [ISOADENOLIN E]
< 5.00
3) CC(=O)O[C@H]1C(=O)[C@@]2(C)[C@H]([C@H](OC(=O)c3ccccc3)[C@]3(O)C[C@H](OC(=O)[C@H](O)[C@@H](NC(=O)c4ccccc4)c4ccccc4)C(C)=C1C3(C)C)[C@]1(OC(C)=O)CO[C@@H]1C[C@@H]2O [PACLITAXEL]
> 8.10
4) COC[C@H]1C(=O)[C@@]23[C@H]4O[C@H]5O[C@]2(O)[C@@H](O)[C@@H]2C(C)(C)CC[C@H](O)[C@]52[C@@H]3CC[C@@H]14 [ISOADENOLIN C]
< 5.00

###

- Test system: SW480
- Assay: Cytotoxicity against human SW480 cells after 48 hrs by MTT method
- Assay type: functional, cell-based
- Experimental Context: SW480, 48 h
Overview of recorded IC50 for various compounds
Metric: IC50

1. C=C1[C@@H](O)[C@]23[C@H](O)[C@H]1CC[C@H]2[C@@]12C(=O)O[C@]3(O)[C@@H](O)[C@@H]1C(C)(C)CC[C@@H]2OC(C)=O
> 10 µM
2. CC(=O)O[C@H]1C(=O)[C@@]2(C)[C@H]([C@H](OC(=O)c3ccccc3)[C@]3(O)C[C@H](OC(=O)[C@H](O)[C@@H](NC(=O)c4ccccc4)c4ccccc4)C(C)=C1C3(C)C)[C@]1(OC(C)=O)CO[C@@H]1C[C@@H]2O
< 0.008 µM
3. C=C1C(=O)[C@]23[C@H](O)[C@H]1CC[C@H]2[C@@]12[C@H](OC)O[C@]3(O)[C@@H](O)[C@@H]1C(C)(C)CC[C@@H]2OC(C)=O
> 10 µM

The values you see were collected from ChEMBL document CHEMBL1799954.
